Molecular target: DN-III quality control recombinant protein (produced by Fapon Biotech InC.) (dengue virus)
Experiment: BLI, AMC sensor, antibody captured
parameter: kon (M⁻¹ s⁻¹)
Give bare numbers, in M⁻¹ s⁻¹.

Below are worked cases with known answers.
Mutation 1-36 (antibody, V domains shown) VH: EVQLQQSGTELVRPGALVKLSCKASGFNIKDYYVHWVKQRPRQGLEWIGWIDPENGKTIYDPKFQDKASITSDTSTNTAYLQLRSLTSEDTAVYYCVTAYFRFVYWGQGTLVTVSA VL: QIVLTQSPAIMSAFPGERVTMTCSASSSVRYMYWHQQKPGSSPRLLIYDTSNLASGVPVRFSGSGSGTSYSLTISRDEAMDAATYYCQQWSSFPRTFGGGTKLEIKR :: 44900
Mutation 1-21 (antibody, V domains shown) VH: EVQLQQSGTELVRPGALVKLSCKASGFNIKDYYVHWVKQRPRQGLEWIGWIDPENGKTIYDPKFQDKASITSDTSTNTAYLQLRSLTSEDTAVYYCVSAYFRFVYWGQGTLVTVSA VL: QIVLTQSPAIMSAFPGERVTMTCSASSSVRYMYWHQQKPGSSPRLLIYDTSNLASGVPVRFSGSGSGTSYSLTISRDEAMDAATYYCQQWSSFPRTFGGGTKLEIKR :: 32300
Mutation 1-6 (antibody, V domains shown) VH: EVQLQQSGTELVRPGALVKLSCKASGFNIKDYYVHWVKQRPRQGLEWIGWIDPENGKTIYDPKFQDKASITSDTSTNTAYLQLRSLTSEDTAVYYCVTAYVRFVYWGQGTLVTVSA VL: QIVLTQSPAIMSAFPGERVTMTCSASTSVRYMYWHQQKPGSSPRLLIYDTSNIASGVPVRFSGSGSGTSYSLTISRDEAMDAATYYCQQWSSTPRTFGGGTKLEIKR :: 46700

Specify measured kon for Mutation 1-14 (antibody, V domains shown) VH: EVQLQQSGTELVRPGALVKLSCKASGFNIKDYYLHWVKQRPRQGLEWIGWIDPENGKTLYDPKFQDKASITSDTSTNTAYLQLRSLTSEDTAVYYCVSAYVRFVYWGQGTLVTVSA VL: QIVLTQSPAIMSAFPGERVTMTCSASTSVRYMYWHQQKPGSSPRLLIYDTSNVASGVPVRFSGSGSGTSYSLTISRDEAMDAATYYCQQWSSFPRTFGGGTKLEIKR .
408000
